# tested-target: SARS-CoV-2 spike protein on live SARS-CoV-2 virus (SARS-CoV-2, UniProt P0DTC2 14-1273)
# procedure-details: cell-based or functional assay
readout-kind: IC50, live SARS-CoV-2 미세중화분석, Vero 세포 (nM)
# output: bare number, implied unit nM

Solved entries (count: 3):
# binder, IC50, live SARS-CoV-2 미세중화분석, Vero 세포, nM
data = [
    ("SA3838 (antibody, V domains shown) VH: QVQLVESGAEVKKPGASVRVSCKISGYIFTELSIHWVRQAPGKGLEWMGGFDPEEGKTIYAQKFQGRVTMTEDTSTDTAYMELSSLRSEDTAVYYCAKIGHLGDFWYWGQGTLITVSS VL: QSALTQPASVSGSPGQSITISCTGTTSDIGSYDYVSWYQQHPGKAPKLIIYGVTRRPSGVSNRFSGSKSGNTASLTISRLLTEDEAEYYCATYTSSATYVFGTGTKVTVL", 9.4),
    ("SA3827 (antibody, V domains shown) VH: QVQLVESGGTLVQPGRSLRLSCAASGFTFSSYAMHWVRQAPGKGLEWVAVISYDGSNKYYADSVKGRFTISRDNSKNTLYLQMNSLRAEDTAVYYCARRGHYYDSSGFLYWGQGTLVTVSS VL: DIQMTQSPSSLSASVGDRVTITCRASQSISTYLSWYQQKPGKAPKLLIYAASNLQSGVPSRFSASGSGTDFTLTISSLQPEDFATYYCQQSYNTPRTFGQGTKVEIK", 8.92),
    ("SA3902 (antibody, V domains shown) VH: QVQLVQSGAEVRQPGASVKVSCKTSGYAFSYYHIHWVRQAPGQGLEWMGLINPGSGGTNYAQKFQGRVTLTRDTSTSTVYMDLTGLRSEDTAVYYCAGSEQPHYYANGAYRVWGQGTLVTVSS VL: DIQMTQSPSTLSASVGDRVTITCRASQSISSYLNWYQQKPGKAPKLLIYEVSTLESGVPSRFSGSRSGTEFTLTISSLQPDDFATYYCQQYDTFGGGTKVEIK", 37.3),
]

Asked: Entry SA3755 (antibody, V domains shown) VH: QMQLVESGGGVVQPGGSLRLSCAASGFTFDDHTMHWVRQAPGKGLEWVSLISWDGGSTYYADSVKGRFTISRDNSKNSLYLQMNSLRAEDTAVYYCTRDASRRPGDGGYDFDVWGQGTQVTVSS VL: QAVVTQEPSLTVSPGGTVTLTCGSSTGTVTRGHWPYWFQQKPGQAPRTLIYDTDNKHSWTPARFSGSLLGGKAALTLSGAQPEDEADYYCLLSYSDSRVFGTGTKVTVL has what IC50, live SARS-CoV-2 미세중화분석, Vero 세포?
Given back: 8.74

Asked: Entry SA4057 (antibody, V domains shown) VH: EVQLVQSGGGLVQPGGSLRLSCAASVITVSSNYMSWVRQAPGKGLEWVSVIYPGGSTYYADSVKGRFTISRDKSKNTLYLQMNSLRAEDTAVYYCARDLDIVGGMDVWGQGTTVTVSS VL: QLVLTQPPSVSGAPGQRVTISCTGSSSNIGAPHDVHWYQQLPGTAPRLLIYANNNRPSGVPDRFSGSKSGTSASLAITGLQDEDEADYYCQSYDSSLRAYVFGTGTKVTVL has what IC50, live SARS-CoV-2 미세중화분석, Vero 세포?
Given back: 37.5
